tested on: Avena fatua (AVEFA); assay: Post-emergence herbicidal activity, glasshouse pot test; format: in vivo; details: 312 h, rate 250 g/ha, evaluated after 13 days, 100=total damage to plant, 0=no damage to plant
Measured pest or weed control at 250 g/ha accompanies every entry in the list below.
observable: pest or weed control at 250 g/ha (%)

INSERT INTO assay_data (compound, observable, unit_symbol, test_value) VALUES
  ('CCc1ccc(Oc2ccc(Br)cc2F)cc1C1=C(O)CCC1=O [Compound A-42]', 'pest or weed control at 250 g/ha', '%', 0),
  ('CCc1ccc(Oc2cnc3ccc(Br)cc3n2)cc1C1=C(O)CCC1=O [Compound A-79]', 'pest or weed control at 250 g/ha', '%', 0),
  ('CCc1ccc(Oc2ccc(Cl)cc2F)cc1C1=C(O)C2C(C1=O)[C@H]1CC[C@@H]2CC1 (some centres unmarked) [Compound A-32]', 'pest or weed control at 250 g/ha', '%', 90),
  ('CCc1ccc(Oc2ccc(Cl)cc2)cc1C1=C(O)CCC1=O [Compound A-39]', 'pest or weed control at 250 g/ha', '%', 0),
  ('CCc1ccc(Oc2ccc(Cl)c(F)c2)cc1C1=C(O)C2C(C1=O)[C@H]1CC[C@@H]2CC1 (some centres unmarked) [Compound A-33]', 'pest or weed control at 250 g/ha', '%', 90),
  ('CCc1ccc(Oc2ccc(F)cc2)cc1C1=C(O)C2C(C1=O)[C@H]1CC[C@@H]2CC1 (some centres unmarked) [Compound A-30]', 'pest or weed control at 250 g/ha', '%', 20),
  ('CCc1ccc(Oc2ncc(Cl)cc2F)cc1C1=C(O)[C@H]2[C@H]3CC[C@H](C3)[C@H]2C1=O [Compound A-11]', 'pest or weed control at 250 g/ha', '%', 90),
  ('CCc1ccc(Oc2ccc(Br)cc2Cl)cc1C1=C(O)CCC1=O [Compound A-35]', 'pest or weed control at 250 g/ha', '%', 20);
